molecules and their reported normalized growth
- ASSAY_REMARKS: chemical genetic growth profiling, strain panel (AID 1159580);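 further: tested at 20 µM; growth read once vehicle control cultures reached saturation at 30 °C; 1 = growth at the plate median or of vehicle wells; lower values mean less growth of the strain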
- MEASUREMENT_SETUP: S. cerevisiae deletion strains, growth OD, locus YBL061C, strain skt5, active compounds read low
About 2,000 (36%) of roughly 5,500 compounds were called active. Inconclusive results (about 18%) are left out. This is one part of the list.
READOUT_TYPE: normalized growth

[[record]]
molecule = "COc1ccc2cc1Oc1ccc(cc1)C[C@H]1c3c(cc4c(c3Oc3cc5c(cc3OC)CCN(C)[C@@H]5C2)OCO4)CCN1C"
reading = 1.01

[[record]]
molecule = "CC(=O)O[C@]1(C(C)=O)CCC2C3C[C@H](C)C4=CC(=O)CC[C@]4(C)C3CC[C@@]21C (some centres undefined)"
reading = 0.964

[[record]]
molecule = "O=C1CC(c2ccc(O)c(O)c2)Oc2cc(O)cc(O)c21 (centres undefined)"
reading = 0.984

[[record]]
molecule = "COC1C(O)C(O)C(O)[C@@H](O)C1O (some centres undefined)"
reading = 0.971

[[record]]
molecule = "CC1(C)C2CC[C@]3(C)C(C(=O)C=C4[C@@H]5C[C@@](C)(C(=O)O)CC[C@]5(C)CC[C@]43C)[C@@]2(C)CC[C@@H]1O (some centres undefined)"
reading = 1.02

[[record]]
molecule = "CCc1ccc(CCOc2ccc(CC3SC(=O)NC3=O)cc2)nc1 (centres undefined)"
reading = 1.01

[[record]]
molecule = "CC(=O)OCC(CCn1cnc2cnc(N)nc21)COC(C)=O"
reading = 0.989

[[record]]
molecule = "COc1ccc(-c2coc3c(O)c(OC)ccc3c2=O)cc1"
reading = 0.983

[[record]]
molecule = "O=C(Cc1ccccc1)NO"
reading = 0.957

[[record]]
molecule = "O=C(O)C1CC([C@@H]2CCCCN2)CN2CCCCC12 (some centres undefined)"
reading = 0.985

[[record]]
molecule = "COC(=O)[C@@H]1C(O)CC[C@H]2CN3CCc4c([nH]c5ccccc45)[C@@H]3C[C@@H]21 (some centres undefined)"
reading = 1.01

[[record]]
molecule = "Cc1cccc(Nc2cc(Cl)nc(SCC(=O)O)n2)c1C"
reading = 0.999

[[record]]
molecule = "OC(CCN1CCCCC1)(c1ccccc1)c1ccccc1"
reading = 0.986

[[record]]
molecule = "CCC(C(=O)O)c1ccccc1 (centres undefined)"
reading = 0.999

[[record]]
molecule = "CCCCCCCCCCCCCCCCOP(=O)([O-])OCC[N+](C)(C)C"
reading = 0.0614

[[record]]
molecule = "O=C(O)COc1cc(Cl)c(Cl)cc1Cl"
reading = 1

[[record]]
molecule = "COc1ccc2c(c1)OC[C@@H](Cc1ccc(OC)c(OC)c1)[C@@H]2O"
reading = 0.99

[[record]]
molecule = "C=C1CC[C@H](O)C/C1=C/C=C1\\CCC[C@]2(C)C([C@H](C)/C=C/[C@H](C)C(C)C)CC[C@@H]12 (some centres undefined)"
reading = 1.02

[[record]]
molecule = "CCCCOc1ccc(CC(=O)NO)cc1"
reading = 0.996

[[record]]
molecule = "CCCCCCCC/C=C/CCCCCCCCOP(=O)([O-])OCC[N+](C)(C)C"
reading = 0.0558

[[record]]
molecule = "CC(=O)O[C@]1(C(C)=O)CCC2C3C=C(C)C4=CC(=O)CCC4(C)C3CCC21C (some centres undefined)"
reading = 0.932

[[record]]
molecule = "CN=C(NC#N)NCCSCc1nc[nH]c1C"
reading = 0.991

[[record]]
molecule = "CC(=O)O[C@@](C)(CCC=C(C)C)C1CC=C(C)CC1 (some centres undefined)"
reading = 0.979

[[record]]
molecule = "CC[C@@H](CO)NCCN[C@@H](CC)CO"
reading = 1.02

[[record]]
molecule = "C1CCc2nnnn2CC1"
reading = 1.01

[[record]]
molecule = "COc1ccc(C[C@H]2NC[C@H](O)[C@H]2OC(C)=O)cc1"
reading = 0.803

[[record]]
molecule = "NC(N)=NOCC[C@H](N)C(=O)O"
reading = 1.02

[[record]]
molecule = "COC(=O)COc1cc(Cl)c(Cl)cc1Cl"
reading = 0.989

[[record]]
molecule = "C=CC1=C(C(=O)O)N2C(=O)[C@@H](NC(=O)/C(=N/O)c3csc(N)n3)[C@H]2SC1"
reading = 1.03

[[record]]
molecule = "Cn1cc[nH]c1=S"
reading = 0.99

[[record]]
molecule = "CC(=O)OC1CC23CC24CCC(OC2OCC(O)C(O)C2O)C(C)(C)C4CCC3C2(C)CC3OC4(CC(C)C3C12C)OC(O)C1(C)OC41 (centres undefined)"
reading = 1.01

[[record]]
molecule = "CCC1(c2ccccc2)C(=O)NCNC1=O"
reading = 1.01

[[record]]
molecule = "CN=C(NC#N)NCCSCc1nc(N=C(N)N)cs1"
reading = 0.988

[[record]]
molecule = "NC(N)=Nc1nc(CSCCC(N)=NS(N)(=O)=O)cs1"
reading = 0.978

[[record]]
molecule = "COc1cccc([C@]2(O)CCCC[C@H]2CN(C)C)c1"
reading = 0.968

[[record]]
molecule = "CCCCCC(=O)O[C@]1(C(C)=O)CCC2C3CCC4=CC(=O)CC[C@]4(C)C3CC[C@@]21C (some centres undefined)"
reading = 1

[[record]]
molecule = "NC/C=C/C(=O)O"
reading = 1.01

[[record]]
molecule = "CCC1(c2ccc(N)cc2)CCC(=O)NC1=O (centres undefined)"
reading = 0.968

[[record]]
molecule = "COc1ccc([C@@H]2CC(=O)c3c(O)cc(O)cc3O2)cc1O"
reading = 0.977

[[record]]
molecule = "CNc1ccccc1C(=O)N1CCc2c([nH]c3ccccc23)C1=O"
reading = 1

[[record]]
molecule = "C[N+](C)(C)CCOP(=O)([O-])OP(=O)(O)OC[C@H]1OC(n2ccc(N)nc2=O)[C@H](O)[C@@H]1O (some centres undefined)"
reading = 0.983

[[record]]
molecule = "COC(=O)C1[C@H]2C[C@H]3c4[nH]c5ccccc5c4CCN3C[C@@H]2CC[C@@H]1O (some centres undefined)"
reading = 0.982

[[record]]
molecule = "CCCCOc1ccc(C(=O)CCN2CCCCC2)cc1"
reading = 0.968

[[record]]
molecule = "CC(C)[N+](C)(CCOC(=O)C1c2ccccc2Oc2ccccc21)C(C)C"
reading = 0.989


====

- ASSAY_REMARKS: chemical genetic growth profiling, strain panel (AID 1159580);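 further: tested at 20 µM; growth read once vehicle control cultures reached saturation at 30 °C; 1 = growth at the plate median or of vehicle wells; lower values mean less growth of the strain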
- MEASUREMENT_SETUP: S. cerevisiae strains, growth OD, strain wild type
The campaign covered roughly 5,500 compounds. About 2,000 (36%) were called active. Inconclusive results (about 18%) are left out. Cut-off read from the data, not from the text of the source: active = normalized growth mostly below about 0.91 (no sharp cut-off); inconclusive = no clear call, values can overlap the other calls; inactive = mostly above about 0.92. The list shows a part of the results.
Labels: active, inactive

[[record]]
molecule = "COc1ccc(C[C@H]2NC[C@H](O)[C@H]2OC(C)=O)cc1"
category_label = "active"

[[record]]
molecule = "COc1ccc2cc1Oc1ccc(cc1)C[C@H]1c3cc(c(OC)cc3CCN1C)Oc1c(OC)c(OC)cc3c1[C@H](C2)N(C)CC3"
category_label = "inactive"

[[record]]
molecule = "Oc1ccc(O)cc1"
category_label = "inactive"

[[record]]
molecule = "COC(=O)COc1ccc(Cl)cc1Cl"
category_label = "inactive"

[[record]]
molecule = "CCCCCC(C)N (stereo unspecified)"
category_label = "inactive"

[[record]]
molecule = "CC(C)[N+](C)(CCOC(=O)C1c2ccccc2Oc2ccccc21)C(C)C"
category_label = "inactive"


====

- ASSAY_REMARKS: chemical genetic growth profiling, strain panel (AID 1159580);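 further: tested at 20 µM; growth read once vehicle control cultures reached saturation at 30 °C; 1 = growth at the plate median or of vehicle wells; lower values mean less growth of the strain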
- MEASUREMENT_SETUP: S. cerevisiae deletion strains, growth OD, locus YER015W, strain faa2, active compounds read low
About 2,000 (36%) of roughly 5,500 compounds were called active. Roughly 18% stayed inconclusive and do not appear here. This is one part of the list.
Overview of reported normalized growth across a group of compounds:
READOUT_TYPE: normalized growth

[[record]]
compound = "CN=C(NC#N)NCCSCc1nc[nH]c1C"
reading = 1.01

[[record]]
compound = "CC1(C)C2CC[C@]3(C)C(C(=O)C=C4[C@H]5C[C@@](C)(C(=O)O)CC[C@]5(C)CC[C@]43C)[C@@]2(C)CC[C@@H]1O (stereo partly drawn)"
reading = 0.933

[[record]]
compound = "CC1(C)C2CC[C@]3(C)C(C(=O)C=C4[C@@H]5C[C@@](C)(C(=O)O)CC[C@]5(C)CC[C@]43C)[C@@]2(C)CC[C@@H]1OC(=O)CCC(=O)O (stereo partly drawn)"
reading = 0.989


====

- ASSAY_REMARKS: chemical genetic growth profiling, strain panel (AID 1159580);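 further: tested at 20 µM; growth read once vehicle control cultures reached saturation at 30 °C; 1 = growth at the plate median or of vehicle wells; lower values mean less growth of the strain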
- MEASUREMENT_SETUP: S. cerevisiae deletion strains, growth OD, locus YJR066W, strain TOR1 (second series), active compounds read low
In all, about 5,500 compounds went through this assay and about 2,000 (36%) were called active. Another 18% or so got no clear call; they are omitted. The list shows a part of the results.
READOUT_TYPE: normalized growth

[[record]]
compound_string = "O=C(Nc1cc(Cl)cc(Cl)c1)Nc1cc(-c2cccs2)[nH]n1"
readout_type = "normalized growth"
reading = "0.8 (inactive)"

[[record]]
compound_string = "CC1=CC(=O)C(CCOCCC2=CC(=O)C(C)=CC2=O)=CC1=O"
readout_type = "normalized growth"
reading = "0.804 (inactive)"

[[record]]
compound_string = "Cn1cncc1S(=O)(=O)/C(C#N)=C/c1ccccc1Sc1ccc(Cl)cc1"
readout_type = "normalized growth"
reading = "0.771 (inactive)"

[[record]]
compound_string = "N#Cc1c(Cl)c(Cl)c(Cl)c(Cl)c1C#N"
readout_type = "normalized growth"
reading = "0.459 (active)"

[[record]]
compound_string = "O=[N+]([O-])c1cc(C(F)(F)F)ccc1-n1ccc(-c2cccs2)n1"
readout_type = "normalized growth"
reading = "0.839 (inactive)"

[[record]]
compound_string = "NCCCN=c1ccc2c3c1c(O)c1c(O)ccc(=O)c1c3[nH]n2CCNCCO"
readout_type = "normalized growth"
reading = "0.964 (inactive)"

[[record]]
compound_string = "NC(N)=Nc1nc(-c2cc(Cl)sc2Cl)cs1"
readout_type = "normalized growth"
reading = "0.886 (inactive)"

[[record]]
compound_string = "COc1ccc(NC(=O)O/N=C(/N)c2ccc(Oc3c(Cl)cncc3Cl)cc2)cc1"
readout_type = "normalized growth"
reading = "0.572 (active)"

[[record]]
compound_string = "C/C(=N/NC(N)=S)c1ccccn1"
readout_type = "normalized growth"
reading = "0.874 (inactive)"

[[record]]
compound_string = "O=C(C=C(O)c1ccc(Br)cc1)C(=O)Nc1ccccc1"
readout_type = "normalized growth"
reading = "0.115 (active)"

